- TARGET_DESC: human melanocortin-1 receptor hMCR-1 expressed by the human melanoma cell line HBL (human, UniProt Q01726 1-317)
- Sequence (Q01726 whole entry): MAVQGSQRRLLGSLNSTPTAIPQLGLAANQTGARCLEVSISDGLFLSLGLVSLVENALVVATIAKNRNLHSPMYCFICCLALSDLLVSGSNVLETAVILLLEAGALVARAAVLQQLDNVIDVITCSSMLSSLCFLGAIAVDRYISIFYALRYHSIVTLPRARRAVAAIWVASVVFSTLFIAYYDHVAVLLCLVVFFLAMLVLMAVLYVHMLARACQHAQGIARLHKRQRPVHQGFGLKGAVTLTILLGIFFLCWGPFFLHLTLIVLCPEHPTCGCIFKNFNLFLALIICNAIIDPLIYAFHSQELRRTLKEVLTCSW
- METHOD_SUMMARY: cell-based or functional assay
Bridge positions count the residues as written; N and C are the ends. Square brackets hold non-standard residues; d marks the D form. 1Nal = N[C@@H](Cc1cccc2ccccc12)C(=O)O; d2Nal = N[C@H](Cc1ccc2ccccc2c1)C(=O)O; Nle = CCCC[C@H](N)C(=O)O; Orn = NCCC[C@H](N)C(=O)O; Dab = NCC[C@H](N)C(=O)O
READOUT_KIND: MC-1 Emax (average; cAMP HBL) (%)

Before answering, review these 3 worked examples.
Ac-[Nle]EH[dF]R[Dab][1Nal]-NH2 (lactam 2-6) [Ac-Nle-cyclo(Glu-His-D-Phe-Arg-Dab)-Nal 1-NH2] = 72
Ac-[Nle][Dab]H[dF]R[Dab]W-NH2 (linker 2-6 via C(:O)‑(CH2)2‑C(:O)) [Ac-Nle-cyclo(Dab-His-D-Phe-Arg-Dab)-Trp-NH2 with bridge C(═O)-(CH2)2-C(═O)] = 92
Ac-[Nle]E[Orn][dPhe(3,4-F)]R[Dab]-NH2 (lactam 2-6) [Ac-Nle-cyclo(Glu-Orn-D-Phe(3,4-F)-Arg-Dab)-NH2] = 97

(I) Ac-[Nle]EH[dF]R[Dab][d2Nal]-NH2 (lactam 2-6) [Ac-Nle-cyclo(Glu-His-D-Phe-Arg-Dab)-Nal 2-NH2 (SEQ ID NO: 14)]
(II) Ac-[Nle]EK[dF]R[Dab]W-NH2 (lactam 2-6) [Ac-Nle-cyclo(Glu-Lys-D-Phe-Arg-Dab)-Trp-NH2 (SEQ ID NO: 56)]
Q. // compare: I vs II , metric MC-1 Emax (average; cAMP HBL), want the smaller Please indicate the selected item by its label.
A. I
(I: 69%, II: 108%)
